# TARGET_OR_SYSTEM: T1, IRF4 DBD D117H (Homo sapiens, UniProt Q15306 20-132, D117H)
# T1 sequence: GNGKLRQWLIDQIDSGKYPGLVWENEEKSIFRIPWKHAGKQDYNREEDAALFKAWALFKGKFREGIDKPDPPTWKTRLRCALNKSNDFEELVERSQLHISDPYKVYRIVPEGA
# EXPERIMENT_SUMMARY: SPR two-state kinetic; FP: PBS + 0.05% Tween20, 5 nM DNA, 1 h, room temperature; SPR: Biacore S200, SA chip, protein 0.1-4500 nM, running buffer not given in material; errors are SD
# CONDITIONS_USED: protein: recombinant; tags: N-terminal His8-linker-His8-TEV, cleaved; label: 3' biotin; hairpin, TTTT loop
QUANTITY_MEASURED: Kd (nM)
Answers are plain numbers, in nM.

Consider the binder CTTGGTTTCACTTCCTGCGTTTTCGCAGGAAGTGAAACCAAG (structured_DNA) [IRE hairpin (biotin)] . State its measured Kd.
204
